B1: TPR t1 (parent)
chain: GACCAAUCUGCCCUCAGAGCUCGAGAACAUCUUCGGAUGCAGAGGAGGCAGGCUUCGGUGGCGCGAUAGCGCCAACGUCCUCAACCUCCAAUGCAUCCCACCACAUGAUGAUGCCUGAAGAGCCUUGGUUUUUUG

- Variants of: B1
- assay.name: polymerase ribozyme fitness, log enrichment relative to wild type (log ratio); higher = more active; in vitro selection for triplet polymerase activity
Decide by polymerase ribozyme fitness (log ratio): equal to or exceeding -3 means Condition met, less means Condition not met.

INSERT INTO assay_data (entry_sequence, assigned_class) VALUES
  ('GACCAAUCUGCCCUCAGAGCUCGAGAACAUCUUCGGAUGCAGAGGAGGCAGGCUUCGGUGUCGCGAUAGCGCCAACGCCCUCAACCUCCAAUGCAUCCCACCACAUGAUGAUGCCAGAAGAGCCUUGGUUUUUUG [G61U U78C U116A]', 'Condition met'),
  ('GACCAAUCUGCCCUCAGAGCUCGAGAACAUCUUCGGAUGCAGAGGAGGCAGGCUUCGGUGGCGCGAUAGCGCCAACGUCCUCAACCUUCAAUGCAUCCCACCACAUGAUCAUGCCUGAAGAGCCUUGGUUUUUUG [C88U G110C]', 'Condition not met'),
  ('GACCAAUCUGCCCUCAGAGCUCGAGAACAUCUUCGGAUGCAGUGGAGGCAGGCUUCGGUGGCGCGAUAGCGCCAACGUCCUCAACCUCCAAUGCAUCCCACCACAUGAUGAUGGCUCAAGAGCCUAGGUUUUUUG [A43U C114G G117C U126A]', 'Condition not met'),
  ('GACCAAUCGCCCCUCAGAGCUCGAGAACAUCUUCGGAUGCAGAGGAGGCAGGCUUCGGUGGCGCGAUAGCGCCAACGUCCUCAACCUCCAAUGCAUCCCACCACAUGAUGAUGCCUGAAGAGCCUUGGUUUUUUG [U9G G10C]', 'Condition met'),
  ('GACCAAUCUGACCUCAGAGCUCGAGAACAUCUUCGGAUGCAGAGGAGCCAGGCUUCGGUGGCGCGAUAGCACCAACGUCCUCAACCGCCAAUGCAUCCCACCACAGGAUGAUGCCUGAAGUGCCUUGGUUUUUUG [C11A G48C G71A U87G U106G A121U]', 'Condition met'),
  ('GCCCAAUCUGCCCUCAGAGCUCGAGAACAUCUUCGGAUGCAGAGGAGGCAGGCUUCGGUGGCGCGAUAGCGACAACGUCCUCAACCUCCAAUGCAUCCCACCACAUGAUGAUGCCUGAAGAGCCUUGGUUUUUUG [A2C C72A]', 'Condition met'),
  ('GACCAAUCUUCCCUCAGAGCUCGAGAACAUCUUCGGAUGCAGAGAAGGCAGGCUUCGGUGGCGCGAUAGCGCCAACGUCCUCAACCUCCAAUGCAUCCCACCACAAGAUGAUGCCUGAAGAGCCUUGGUUUUUUG [G10U G45A U106A]', 'Condition met'),
  ('GACCAAUCUGCCCUCAGAGCUCGAGAACGUCUUCGGAUGCAAAGGAGGCAGGCUUCGGUGGCACGAUAGCGCCAACGUCCUCAACCUCCAAUGCAUCCCACCACAUGAUGAUGCCUGAAGAGCCUUGGUUUUUUG [A29G G42A G63A]', 'Condition not met'),
  ('GACCAAUCUGCCCUCAGAGCUCGAGAACAUCUUCGGAUGCAGAGGAGGCAGGAUUCGGUGGCGCGAUAGCGUCAACGUCCUCAACCUCCAAUGCAUCCCACCAUAUGAUGAUCCCUGAAGAGCCUUGGUUUUUUG [C53A C72U C104U G113C]', 'Condition met'),
  ('GACCAAUCUGCCCUCAGAGCUCGAGAACAUCUUCGGAUGCAGAGGAGGCAGGCUUCGGUGGCGCGAUAGAGCCAACGUCCUCAACCUCCAAUGCAUCCCACCACAUGAGGAUGCCUGAAGAGCCUUGGUUUUUUG [C70A U109G]', 'Condition not met'),
  ('GACCAAUCUGCCCUCAGAGCUCGAGAACAUCUUCGGAUGGAGAGGAGGCAGGCUUGGGUGGCGCGAUAGAGCCAACGUCCUCAACCUCCAAUGCAUCCCACCACAUGAUGAUGCCUGAAGAGCCUUGGUUUUUUG [C40G C56G C70A]', 'Condition not met'),
  ('GACCAAUCUGCCCUCAGAGCUCGAGAACAUCUUCGGAUGCAGAGGAGACAGGAUUCGGGGCCGCGAUAGCGCCAACGUUCUCAACCUCCAAUGCAUCCCAACACAUGAUGAUGCCUGAAGAGCCUAGGUUUUUUG [G48A C53A U59G G61C C79U C101A U126A]', 'Condition not met'),
  ('GACCAAUCUGCCCUCAGAGCUCGAGAACAUCUUCGGAUGCAGAGGAUGCAGGCUUCGGUGGCGCGAUAGCGCGAACGUCCUUAACCUCCAAUGCAUCCCACCACAUGAUGAUGCCUGAAGAGCCUUGGUUUUUUG [G47U C73G C82U]', 'Condition met'),
  ('GACCAAUCUGCCCUCAGAGCUCGAGAACAUCUUCGGAUUCAGAGGAGGCAGGCUUGGGUGGCGCGAUAGCGCCAACGUCCUCAACCUCCAAUGCAUCCCACUACAUGAUGAUGCCUGAAGAGCCUUGGUUUUUUG [G39U C56G C102U]', 'Condition met'),
  ('GACCAAUGUGCCCUCAGAGCUCGAGAACAUCUUCGGAUGCAGAGGAGGCAGGAUUCGGUGGCGCGAUAGCGCCAACGUCCUCAACCUCCAAUGCAUCCCACCACAUGAUGAUGCCUGAAGAGCCUUGGUUUUUUG [C8G C53A]', 'Condition met'),
  ('GACCAAUCUGCCCUCAGAGCUCGAGAACAUCUUCGGAUGCAGAGGAGGCAGGCUUCGGUUGCGCGAUAGCGCCAACGUCCUCAACCACCAAUGCAUCCCACCACAUGAUGAUGCCUGAAGAGCCUUGGUUUUUUG [G60U U87A]', 'Condition met'),
  ('GACCAAUCUGGCCUCAGAGCUCGAGAACAUUUUCGGAUGCAGAGGAGGCAGGCUCCGGUGGCGCGAUAGCGCCAACGUCCUCAACCUCCGAUGCAUCCCACCACAUGAUGAUGCCUGAAGAGCCUUGGUUUUUUG [C11G C31U U55C A90G]', 'Condition not met'),
  ('GACCAAUCUGCCCUCAGAGCUCGAGAACAUCUUCGGAUGCAGAGGAGGCAGGCUUCGGUGGCGCGAUAGCGCCAACGUCCUCAACCUCCAAUGCAUCCCCCCACAUGAUGAUGCCUGAAAAACCUUGGUUUUUUG [A100C G120A G122A]', 'Condition met'),
  ('GACCAAUCUGCCCUCAAAGCUCGAGAACAUCUUCGGAUGCAGAGGAGGCAGGCUUCGGUGGCGCGAUAGCGCCAACGUCCUCAACCUCCAAUGCAUCCCACCACAUGAAGAUGCCUAAAGAGCAUUGGUUUUUUG [G17A U109A G117A C124A]', 'Condition not met'),
  ('GACCAAUCUGCCCUCAGAGCUCGAGAACAUCUUCGGAUGCAGAGGAGGCAGGCUUCGGUGGAGCGAUAGCGCCAACGUCCUCAACCUCCAAUGCAUCUCACCACAUGAUGAUGCCUGAAGAGCCUUGGUUUUUUG [C62A C98U]', 'Condition met'),
  ('GACCAAUCUGCCCUCAGAGCUCGAGAACAUCUUCGGAUGCAGAGGAGGACGGCUUCGGUGGCGCGAUAGCGCCAACGUCCUCAACCUCCAAUGCAUCCCACCACAUGAUGAUGCCUGAAGAGCCUUGGUUUUUUG [C49A A50C]', 'Condition met'),
  ('GACCAAUCUGCCCUAAGAGCUCGAGAACAUCUUCGGAUGCAGAGGCGGCAGUCUUUGGUGGCGCGAUAGCGCCAACGUCCUCAACCUCCAAUGCAUCCCACCACAUGAUGAUGCGUGAAGAGCCUUGGUUUUUUG [C15A A46C G52U C56U C115G]', 'Condition not met'),
  ('GACCAAUCUGCUCUCAGAGCUCGAGAACAUCUUCGGAUGCAGAGGAGGCAGGCUUCGGUGGCGCGAUAGCGCCAACGUCCUCAACCUCCAAUGCAUCCCACCACAUGAUGAUGCCUGAAGAGCCUUGGUUUUUUU [C12U G135U]', 'Condition met'),
  ('GACCAAUCUGCCCUCAGAGCUCGAGAACAUCUUCGGAUGGAGAGGAGGCAGGCUUCGGUGGCGCGAUAGCGCCAACGUCCUCAACCUCCAAUGCAUCCCACCACAUGAUGAUGCCUGAAGAUCCUUGGUUUUUUG [C40G G122U]', 'Condition met'),
  ('GACCAAUCUGCCCUCAGAGCUCGAGAACAUCUUCGGAUGCAGAGGAGGCAGGCUUCGGUAGCGCGAUAGCGCCAACGUCCUCAACCUCCAAUGCAUCCUACCACAUGAUGAUGCCUGAAGAGCCUUAGUUUUUUG [G60A C99U G127A]', 'Condition not met'),
  ('GACCAAUCUGCCCUCAGAGCUCGAGAACAUCUUCGGAUGCAGAGGAGGCAGGCUUCGGUGGCGCGAUAGCGCCAACGUCCUCAACCUCCAAUGCAUUCCACCACAUGAUGAUGCUUGAAGAGCCUUGGUUUUUUG [C97U C115U]', 'Condition met'),
  ('GACUAAUCUGCCCUCAGAGCUCGAGAACAUCUUCGGAUGCAGAGGAGGUAGGCUUCGGUGGCGCGAUAGCGCCAACGUCCUCAACCUCCAAUGCAUCUCACCACAUGAUGAUGCCUGAAGAGCCUUGGUUUUUUG [C4U C49U C98U]', 'Condition met'),
  ('GACCAAUCUGCCCUCAGAGCUCGAGAACAUCUUCGGAUGCAGAGGAGGCAGGCUUCGGUGGCGCGAUAGCGCCUACGUCCUCGACCUCCAAUGCAUCCUUCCACAUGAUGAUGCCUGAAUAGCCUUGGUUUUUUG [A74U A83G C99U A100U G120U]', 'Condition not met'),
  ('GACCAAUCUGCCCUCAGAGUUAUAGAACAUCUUCGGAUGCAGAUGAGGCAGGCUUCGGUGGCACGAUAGCGCCAACGUCCUCAACCUGCAAUGCAUCCCACCCCAUGAAGAUGCCUGAAGAGCCUUGGUUUUUUG [C20U C22A G23U G44U G63A C88G A103C U109A]', 'Condition not met'),
  ('GACCAAUCUGCCCUCAGAGCUCGAGAACAUCUUCGGAUGGAGAGGAGGCAGGCUUCGGUUGCGCGAUAGCGCCAACGUCCUCAACCUCCAAUGCAUCCCACCACAUGAUGAUGCCUGAAGAGCCUUGGUUUUUUG [C40G G60U]', 'Condition met'),
  ('GACCAAUCUGCCCUUAGAGCUCGAGAACAUCUUCGGAUGCAGAGGAGGCAGGCUUCGGUGGCGCGAUAGCGCCAACGUCCUCAACUUCCAAUGCAUCCCACAACAUGAUGAUGCCUGAAGAGCCUUGGUUUUUUG [C15U C86U C102A]', 'Condition not met'),
  ('GACCAAUCUGCCCUCAGAGCUCGAGAACAUCUUCGGAUGCAAAGGAGGCUGGCUUCGGUGGCGCGAUAGCGCCAACGUCCUCAACCUCCAAUGCAUCCCAUCACAUGAUGAUGCCUGAAGAGCCUUGGUUUUUUG [G42A A50U C101U]', 'Condition not met'),
  ('GACCAAUCUGCCCUCAGAGCACGAGAACAUCUUCGGAUGCAGAGGAGGCAGGCUUAGGUGGCGCGAUAGCGCCAACGUCCUCAACCUCCAAUGCAUCCCACCACAUGAUGAUGCCUGAAGAGCCUUGGUUUUUUG [U21A C56A]', 'Condition met'),
  ('GACCAAUCUGCCCUCAGAUCUCGAGAACAUCUUCGGAUGCAGAGGAGGCAGGCUUCGGUGGCGCGAUAGUGCCAACGCCCUCAACCUUCAAUGCAUCCCACCACAUGAUGAUGCCUGAAGAGCCUUGGUUUUUUG [G19U C70U U78C C88U]', 'Condition not met'),
  ('GACCAAUCUGCCCUCAGAGCUCGAGAACAUCUUCGGAUGCAGAGGAAGCAGGCUUCGGUGGCGUGAUAGCGCCAACGUCCUCAACCUCCAAUGCAUCCCACCACAUGAUGAUGCCUUAAGAGCCUUGGUUUUUUG [G47A C64U G117U]', 'Condition not met'),
  ('GACCAAUCUGCCCUCAGAGCGCGAGAACAUCUUCGGAUGCAGAGGAGGCAGGCUUCGGUGGCGCGAUAGCUCCAACGUCCUCAACCUCCAAUGCAUCCCACCACAUGAUUAAGCCUGAAGAGCCUUGGUUUUUUG [U21G G71U G110U U112A]', 'Condition met'),
  ('GACCAAUCUGCGCUCAGAGCUCGAGAACAUCUUCGGAUGCAGAGGAGGCAGGCUUCAGUGUCGCGAUAGCGCCAACGUCAUCAACCUCCAAUGCAUCCCACCACAUGAUGAUGCCUGAAGAGCCUUGGUUUUUUG [C12G G57A G61U C80A]', 'Condition met'),
  ('GACCAAUCUGCCCUCAGAGCUCGAGAACAUCUUCGGAUGCAGAGGAGGCAGGCUUCGGUGGCUCGAUAGCGCCAACGUCCUCAACCGCCAAUGCAUCCCACCACAUGAUGAUGCCUGAAGAGCCUUGGUUUUUUG [G63U U87G]', 'Condition met'),
  ('GACCAAUCUGCCCUCAGAGCUCGAGAACAUCUUCGGAUGCAGAGUAGGCAGGCUUCGGUGGCGCGAUAGCGCCAACGUCCUCACCAUCCAAUGCAUCCCACCACAUGAUGAUGCCUAAAGAGCCUUGGUUUUUUG [G45U A84C C86A G117A]', 'Condition not met'),
  ('GACCAAUCUGCCCUCAGAGCUCGAGAACAUCUUCGGAUGCAGAGGAGGCAGGCUUCGGUCGCGCGAUAGCGCCAACGUCCUCAACCUCCAAUGCAUCCUACCACAUGAUGAUGCCUGAAGAGCCUUGGUUUUUUG [G60C C99U]', 'Condition not met'),
  ('GACCAAUCUGCCCUCAGAGCUCGAGAACAUCUUCGGAUGCAGAGCAGGCAGGCUUCGGUGGCGCGAUAGCGCCAACGUCCUCAACCUCCAAUGCAUCCCACCACAUGAUGAUGCCUGAAGAGCCUAGGUUUUUUG [G45C U126A]', 'Condition met');
